Target: IPO11; also: reference of the scale not given here
Test: pooled miR-30 sensor sort-seq; sequence = guide strand
Conditions: shRNA
Each entry gets FALSE if its sensor-assay potency score (higher = more potent) stays under -0.4, and TRUE if its sensor-assay potency score (higher = more potent) is -0.4 or above.

biosequence	group
TAGCTGGGTGACAATCTCCGTA	FALSE
TTAACTTCAAAGTTGTAGCTGT	TRUE
TTCTTTAATAGCATCATCTGAA	TRUE
TAATTCTAAACCATCTTCCAGA	TRUE
TTCCACAACCTTGAGCACCTGA	TRUE
TTGTTCTCCTAGCATCTCCTGC	FALSE
TAACAGGAAACTAAGCAGCTAT	TRUE
TATCTCTACACACATTATCTGT	FALSE
TTGTAGTAGAACTCGACCCATA	FALSE
TTTGTAGTAGAACTCGACCCAT	TRUE
